- Tested on: NCI-H1755
- Assay protocol: relative viability (nuclei count vs DMSO), 5 days (fraction); higher = more cells survive
- Reported conditions: first compound 1 µM
As shown below, each of these molecules has a reported relative viability value.
Number, no unit, nothing else.

Check out these entries, answers already filled in.
Molecule	relative viability
CCN(CC)CCCCNc1ncc2cc(-c3cc(OC)cc(OC)c3)c(NC(=O)NC(C)(C)C)nc2n1 + C[C@]1(O)C[C@@H](c2nc(-c3ccc4ccc(-c5ccccc5)nc4c3)c3c(N)nccn32)C1 [Linsitinib] (partner 1 µM)	0.925
CCN(CC)CCCCNc1ncc2cc(-c3cc(OC)cc(OC)c3)c(NC(=O)NC(C)(C)C)nc2n1 + CCNC(=O)c1noc(-c2cc(C(C)C)c(O)cc2O)c1-c1ccc(CN2CCOCC2)cc1 [Luminespib] (partner 0.01 µM)	0.44
O=c1cc(N2CCOCC2)oc2c(-c3cccc4c3sc3ccccc34)cccc12 + Nc1nc2[nH]cc(CCc3ccc(C(=O)N[C@@H](CCC(=O)O)C(=O)O)cc3)c2c(=O)[nH]1 [Pemetrexed] (partner 0.2 µM)	0.445

Request: Please give the measured relative viability for this molecule: CCN(CC)CCCCNc1ncc2cc(-c3cc(OC)cc(OC)c3)c(NC(=O)NC(C)(C)C)nc2n1 + Nc1ncn([C@H]2C[C@H](O)[C@@H](CO)O2)c(=O)n1 [Decitabine] (partner 2 µM)
Response: 0.685

---

As shown below, each of these compounds has a reported relative viability value.
- Tested on: NCI-H1666
- Assay protocol: relative viability (nuclei count vs DMSO), 5 days (fraction); higher = more cells survive
- Reported conditions: first compound 0.253 µM
Number, no unit, nothing else.

Compound	Numeric result
COc1nc(C)cnc1NS(=O)(=O)c1cccnc1-c1ccc(-c2nnco2)cc1 [Zibotentan] + NC(=O)Nc1cc(-c2cccc(F)c2)sc1C(=O)N[C@H]1CCCNC1 [AZD7762] (partner 0.2 µM)	0.795
O=c1cc(-c2cccc3c2Sc2ccccc2S3)oc(N2CCOCC2)c1 + Cc1nc(Nc2ncc(C(=O)Nc3c(C)cccc3Cl)s2)cc(N2CCN(CCO)CC2)n1 [Dasatinib] (partner 0.075 µM)	0.781

Next compound, relative viability to be filled in.
Request: Please give the measured relative viability for this compound: COc1nc(C)cnc1NS(=O)(=O)c1cccnc1-c1ccc(-c2nnco2)cc1 [Zibotentan] + Cc1cc(Nc2cc(N3CCN(C)CC3)nc(Sc3ccc(NC(=O)C4CC4)cc3)n2)n[nH]1 [Tozasertib] (partner 0.1 µM)
Response: 0.593

---

As shown below, each of these compounds has a reported relative viability value.
- Tested on: LU99A
- Assay protocol: relative viability (nuclei count vs DMSO), 5 days (fraction); higher = more cells survive
- Reported conditions: first compound 20 µM

Check out these entries, answers already filled in.
Compound	relative viability
COCC1(CO)C(=O)C2CCN1CC2 (stereo not drawn) [PRIMA-1MET] + N=C(N)NC(=N)NCCc1ccccc1 [Phenformin] (partner 250 µM)	0.0482
COCC1(CO)C(=O)C2CCN1CC2 (stereo not drawn) [PRIMA-1MET] + O=C(CCCCCCC(=O)Nc1ccccc1)NO [Vorinostat] (partner 1 µM)	0.113

Request: Please give the measured relative viability for this compound: COCC1(CO)C(=O)C2CCN1CC2 (stereo not drawn) [PRIMA-1MET] + CS(=O)(=O)N1CCN(Cc2cc3nc(-c4cccc5[nH]ncc45)nc(N4CCOCC4)c3s2)CC1 [Pictilisib] (partner 1 µM)
Response: 0.154

Reference source for all entries: the supplement of paper PMC10307832
